For each record, write down the corresponding pKd.
Molecular target: T1, EsCas13d, nuclease-dead (Eubacterium siraeum, UniProt B0MS50, R295A;H300A;R849A;H854A)
T1 sequence: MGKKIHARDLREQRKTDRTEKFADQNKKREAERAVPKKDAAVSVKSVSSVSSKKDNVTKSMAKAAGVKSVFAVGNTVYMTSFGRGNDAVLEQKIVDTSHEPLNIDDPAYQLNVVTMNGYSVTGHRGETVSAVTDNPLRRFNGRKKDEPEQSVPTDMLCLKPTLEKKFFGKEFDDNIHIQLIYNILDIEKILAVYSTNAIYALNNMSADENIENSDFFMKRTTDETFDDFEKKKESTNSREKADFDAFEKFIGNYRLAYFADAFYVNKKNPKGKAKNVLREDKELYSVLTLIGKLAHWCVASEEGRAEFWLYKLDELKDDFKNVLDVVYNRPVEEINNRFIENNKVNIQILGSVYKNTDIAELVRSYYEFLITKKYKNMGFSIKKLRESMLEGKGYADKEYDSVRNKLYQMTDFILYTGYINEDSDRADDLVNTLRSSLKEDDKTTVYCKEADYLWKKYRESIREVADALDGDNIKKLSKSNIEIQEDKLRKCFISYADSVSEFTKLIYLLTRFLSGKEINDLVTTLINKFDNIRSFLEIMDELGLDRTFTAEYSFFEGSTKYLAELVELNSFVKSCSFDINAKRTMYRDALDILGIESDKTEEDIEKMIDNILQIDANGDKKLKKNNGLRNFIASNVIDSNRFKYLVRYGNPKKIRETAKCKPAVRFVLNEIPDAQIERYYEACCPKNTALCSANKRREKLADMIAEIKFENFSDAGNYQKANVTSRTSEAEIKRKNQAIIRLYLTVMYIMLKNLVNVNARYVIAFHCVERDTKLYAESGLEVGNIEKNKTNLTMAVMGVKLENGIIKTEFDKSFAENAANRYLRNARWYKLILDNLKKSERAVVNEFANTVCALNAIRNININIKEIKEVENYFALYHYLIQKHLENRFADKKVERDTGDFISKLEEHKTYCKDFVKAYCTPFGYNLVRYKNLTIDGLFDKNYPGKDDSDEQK
Assay: crRNA (strand 1, pre-loaded); Mg2+; 40 mM Tris-HCl pH 7.5, 150 mM NaCl, 6 mM MgCl2, 1 mM DTT, 0.1% Tween-20, 0.2 mg/ml BSA; 25 C; 10 min per concentration, then washed
Conditions: tags: His6-TwinStrep-SUMO cleaved; N-terminal SNAP kept (SNAP-Surface 488); label: 3' end held by stalled T7 RNA polymerase
Give bare numbers, as −log10 of the molar value.

Guide cases for pKd, answers given:
| Binder | Measurement Label | Result Value |
| --- | --- | --- |
| target 1 C6A,G17A (mixed) RNA 1: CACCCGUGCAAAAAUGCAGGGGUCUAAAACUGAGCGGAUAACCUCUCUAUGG RNA 2: GGGAAUGGAUCCACAUCUACGAAUUCGUACCAUAAAGAGGUUAUCAGCUCACCGAGAUCGGAAGAGCACACGU | pKd | 7.42 |
| target 1 insG 3' of 21,insA 3' of 10 (mixed) RNA 1: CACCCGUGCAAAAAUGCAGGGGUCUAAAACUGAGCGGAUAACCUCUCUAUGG RNA 2: GGGAAUGGAUCCACAUCUACGAAUUCGUACCGAUAGAGAGGUUAAUCCGCUCACCGAGAUCGGAAGAGCACACGU | pKd | 7.08 |
| target 1 insG 3' of 22,insA 3' of 11 (mixed) RNA 1: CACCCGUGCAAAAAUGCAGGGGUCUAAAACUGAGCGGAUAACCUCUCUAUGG RNA 2: GGGAAUGGAUCCACAUCUACGAAUUCGUACGCAUAGAGAGGUAUAUCCGCUCACCGAGAUCGGAAGAGCACACGU | pKd | 7.48 |
| target 1 MT 5'PFS UCA 3'PFS UAA (mixed) RNA 1: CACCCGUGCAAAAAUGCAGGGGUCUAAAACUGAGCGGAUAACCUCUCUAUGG RNA 2: GGGAAUGGAUCCACAUCUACGAAUUCUCACCAUAGAGAGGUUAUCCGCUCAUAAAGAUCGGAAGAGCACACGU | pKd | 8.02 |
| target 1 insA 3' of 21,insG 3' of 14 (mixed) RNA 1: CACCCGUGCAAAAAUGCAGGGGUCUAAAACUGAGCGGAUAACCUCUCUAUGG RNA 2: GGGAAUGGAUCCACAUCUACGAAUUCGUACCAAUAGAGAGGGUUAUCCGCUCACCGAGAUCGGAAGAGCACACGU | pKd | 7.62 |
| target 1 A9G (mixed) RNA 1: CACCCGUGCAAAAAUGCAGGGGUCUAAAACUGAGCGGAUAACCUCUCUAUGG RNA 2: GGGAAUGGAUCCACAUCUACGAAUUCGUACCAUAGAGAGGUUGUCCGCUCACCGAGAUCGGAAGAGCACACGU | pKd | 7.88 |

Please give pKd for each item listed below.
1. target 1 MT 5'PFS GCA 3'PFS AAC (mixed) RNA 1: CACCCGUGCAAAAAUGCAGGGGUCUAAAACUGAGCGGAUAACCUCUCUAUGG RNA 2: GGGAAUGGAUCCACAUCUACGAAUUCGCACCAUAGAGAGGUUAUCCGCUCAAACAGAUCGGAAGAGCACACGU
2. target 1 MT 5'PFS UGC 3'PFS UAU (mixed) RNA 1: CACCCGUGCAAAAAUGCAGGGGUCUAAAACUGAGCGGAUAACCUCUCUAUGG RNA 2: GGGAAUGGAUCCACAUCUACGAAUUCUGCCCAUAGAGAGGUUAUCCGCUCAUAUAGAUCGGAAGAGCACACGU

[7.62, 7.86]
